A collection of binders and their measured Max Binding MFI
TARGET_OF_ASSAY: T1, ICAM1 on the surface of DU145 cells (human, UniProt P05362 28-532)
T1 construct: whole, on cells
TEST: flow cytometry, DU145 cells;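 note: purified antibodies in dilution series bound to cells for 1 h at 4 °C, detected with a fluorescent secondary antibody (1 h, 4 °C, dark), read by flow cytometry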
Reply with just the number (in MFI).

- BINDER: "Anti-ICAM1 G12 (antibody, human IgG1, lambda, V domains shown, Human IgG1 with a lambda light chain; also called anti-ICAM1 clone G12) VH: QVQLQESGGGLVQPGGSLRLSCAASGFTFSSYAMSWVRQAPGKGLEWVSAISGSGGSTYYADSVKGRFTISRDNSKNTLYLQMSSLRAEDTAFYYCANSAYTGGWYDYWGHGTLVTVSS VL: ASELTQDPAVSVALGQTVKITCQGDSLRTYYASWYQQRPGQAPVLVIYGENSRPSGIPDRFSGSSSGNTASLTITGAQAEDEADYYCNSRDSSGNHLRVFGGGTKLTVLG"
  PROPERTY_NAME: "Max Binding MFI"
  NUMERIC_VALUE: 5010

Task: Tell me its Max Binding MFI given 6G8 (antibody, human IgG1, kappa, V domains shown, Rabbit-human chimeric anti-ICAM1: rabbit VH and VL on human IgG1 and kappa constant regions) VH: QSVEESGGGLVKPGGTLTLTCTVSGFSLSSYAMGWVRQAPGKGLEYIGIIGSSGSTYYATWAKGRFTISKTSTTVDLKITSPTTEDTATYFCVRDPYDSYDAAYRLWGPGTLVTVSS VL: AYDMSQTPASVEVAVGGTVTIKCQASQSIYSYLSWYQQKPGQRPKLLIYDASKLASGVPSRFTGSGSGTEFTLTISGVQSDDAATYYCQQAYSSSNVDNVFGGGTEVVVKR as the entry.
Output: 4190

Task: Quickly give me recorded Max Binding MFI for 8E5 (antibody, human IgG1, kappa, V domains shown, Rabbit-human chimeric anti-ICAM1: rabbit VH and VL on human IgG1 and kappa constant regions) VH: QSLEESGGRLVTPGTPLTLTCTVSGFSLSNYAMNWVRQAPGKGLEWIGYISTRGSAYYASWAKGRFTISKTSTTVDLKMTSPTTEDTATYFCARGDLVGGGYIRGSFDPWGPGTLVTVSS VL: AQVLTQTPSPVSAAVGGTVTINCQSSQSVVSDKLLSWFQQKPGQPPKLLIYGASTLASGVPSRFKGSGSGTQFTLTISDVQSDDAATYYCAGAYSTDSDIRAFGGGTEVVVKR
Output: 9190
